biological target: Schistosoma mansoni thioredoxin glutathione reductase (TGR) (UniProt Q962Y6); assay: qHTS Assay for the Inhibitors of Schistosoma Mansoni Peroxiredoxins; conditions: purified TGR, DTNB reduction, TNB absorbance 405 nm; series mostly up to 114 µM; also: nearly all actives have a fitted effect of over 60% in size
Out of some 360,000 compounds screened, about 11,000 (3.1%) were called active. Not shown: some 4% with an inconclusive outcome. Calls follow the shape of the dose curve; as a rule, active = well fitted inhibition curve with a large enough effect; inconclusive = small, poorly fitted or top-dose-only effect; inactive = no such curve, though single readings can be large or run the other way. The entries come from a sample that favours actives as a whole.
Possible outcomes: active, inactive

INSERT INTO results (compound, label_value) VALUES
  ('COc1ccccc1C(CNC(=O)c1cccc(S(=O)(=O)Nc2ccc(F)cc2)c1)N(C)C (stereo not given)', 'inactive'),
  ('CC(=O)c1ccc(S(=O)(=O)Nc2ccc(C(=O)NCC(c3ccccc3)N(C)C)cc2)cc1 (stereo not given)', 'active'),
  ('COC(=O)CN(C(=S)Nc1ccc(Cl)cc1)C1CC(=O)N(c2ccc(OC)cc2)C1=O (stereo not given)', 'inactive'),
  ('COc1cccc(N2C(=O)CC(N3CCN(S(=O)(=O)c4ccccc4)CC3)C2=O)c1 (stereo not given)', 'active'),
  ('O=C(C1CC(=O)N(c2ccc(F)cc2)C1)N1CCN(c2ccccc2)CC1 (stereo not given)', 'inactive'),
  ('COc1cccc(N2CC(NS(=O)(=O)c3ccc(Cl)cc3)CC2=O)c1 (stereo not given)', 'inactive'),
  ('COc1ccc(COCCN2CCN(S(=O)(=O)c3ccccc3)CCC2=O)cc1', 'inactive'),
  ('O=C1CC(N2CCN(c3ccc(F)cc3)CC2)C(=O)N1c1ccccc1 (stereo not given)', 'active'),
  ('COc1ccc(CN2CCCC(N3CCc4ccccc4C3)C2)c(O)c1 (stereo not given)', 'inactive'),
  ('COc1ccccc1C(CNC(=O)c1cccc(NS(=O)(=O)c2ccc(Br)cc2)c1)N(C)C (stereo not given)', 'inactive');
